Each recorded value in this set is attributed to patent US20240132624A1.

# ASSAY_SYSTEM: T1, cyno FcRn/b2M (cyno, UniProt Q8SPV9 24-297; Q8SPW0 21-119, biotinylated)
# T1 construct: bought recombinant biotinylated protein (Immunitrack ITF05 or ACRO FCM-C82W5); also called cFcRn; cFcRn/cb2M
# T1 sequence (Q8SPV9 24-297 limits assumed, chain 1 of 2): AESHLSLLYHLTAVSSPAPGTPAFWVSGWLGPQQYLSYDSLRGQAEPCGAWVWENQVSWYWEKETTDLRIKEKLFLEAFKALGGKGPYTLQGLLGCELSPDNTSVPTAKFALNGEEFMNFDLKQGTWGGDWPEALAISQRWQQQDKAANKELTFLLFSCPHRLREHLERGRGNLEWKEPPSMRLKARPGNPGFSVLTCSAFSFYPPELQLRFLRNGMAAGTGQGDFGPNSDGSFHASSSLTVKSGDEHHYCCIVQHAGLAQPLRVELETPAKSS
# T1 sequence (Q8SPW0 21-119 limits assumed, chain 2 of 2): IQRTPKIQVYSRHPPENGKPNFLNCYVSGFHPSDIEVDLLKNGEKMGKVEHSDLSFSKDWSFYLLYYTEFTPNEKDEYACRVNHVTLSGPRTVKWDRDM
# TEST: SPR pH 6.0;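 also: surface plasmon resonance kinetics at 25 °C, diluted periplasmic extracts injected over immobilized ligand surfaces, 120 s association then 600–3600 s dissociation, running buffer containing 150 mM NaCl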
# koff annotations
VALUE_KIND: koff (s⁻¹)

| BINDER | RECORDED_MEASUREMENT |
| --- | --- |
| T0263018B11 T28V (VHH, name in Kabat numbering, FLAG3-His6 tagged) VHH: EVQLVESGGGVVQPGGSLRLSCAASGFVFSSYAMYWVRQAPGKGLEWVSAISSGGGSTDYADSVKGRFTISRDNSKNTLYLQMNSLRPEDTALYYCAADTLYTSLTWYSYWGQGTLVTVSS | 0.0022 |
| T0263018B11 S30G (VHH, name in Kabat numbering, FLAG3-His6 tagged) VHH: EVQLVESGGGVVQPGGSLRLSCAASGFTFGSYAMYWVRQAPGKGLEWVSAISSGGGSTDYADSVKGRFTISRDNSKNTLYLQMNSLRPEDTALYYCAADTLYTSLTWYSYWGQGTLVTVSS | 0.00054 |
| T0263018B11 G55D (VHH, name in Kabat numbering, FLAG3-His6 tagged) VHH: EVQLVESGGGVVQPGGSLRLSCAASGFTFSSYAMYWVRQAPGKGLEWVSAISSGGDSTDYADSVKGRFTISRDNSKNTLYLQMNSLRPEDTALYYCAADTLYTSLTWYSYWGQGTLVTVSS | 0.0013 |
| T0263018B11 S31Q (VHH, name in Kabat numbering, FLAG3-His6 tagged) VHH: EVQLVESGGGVVQPGGSLRLSCAASGFTFSQYAMYWVRQAPGKGLEWVSAISSGGGSTDYADSVKGRFTISRDNSKNTLYLQMNSLRPEDTALYYCAADTLYTSLTWYSYWGQGTLVTVSS | 0.00016 |
